These measurements were taken from PubChem BioAssay (EPA / NIEHS).

- Read-out: X-box binding protein 1 (XBP1), XBP1 (gene 7494)
- METHOD: LTEA_HepaRG_XBP1: Life Technologies and Expression Analysis (LTEA) Assay for X-box binding protein 1 (XBP1) using HepaRG (AID 2283540)
- ASSAY CONDITIONS: mRNA level, 48 h; actives raise or lower the signal
Active and inactive are the calls of the source. Rule for the calls: active = hit-call score of the fitted dose curve at least 0.9, where 1 is the maximum; inactive = score below 0.9.
Allowed answers: active, inactive

A selection of reference data follows.
[
  {
    "COMPOUND": "CCOc1cc(C(C)(C)C)ccc1C1COC(c2c(F)cccc2F)=N1 (stereo unspecified)",
    "CLASS NAME": "inactive"
  },
  {
    "COMPOUND": "O=P(O)(O)CCCl",
    "CLASS NAME": "inactive"
  },
  {
    "COMPOUND": "CC1(C)C(C(=O)OC(C#N)c2cccc(Oc3ccccc3)c2)C1(C)C (stereo unspecified)",
    "CLASS NAME": "inactive"
  }
]

Hi team, can someone confirm the assay call for Cc1c(COC(=O)[C@@H]2[C@H](/C=C(\Cl)C(F)(F)F)C2(C)C)cccc1-c1ccccc1 ? inactive

I would be grateful if you could indicate the recorded call for COP(=S)(OC)Oc1ccc([N+](=O)[O-])c(C)c1 . inactive

So what was the verdict on COCC(C)N(C(=O)CCl)c1c(C)csc1C (stereo unspecified) in this test? inactive

What did the test return for Cc1nc(N(C)C)nc(OC(=O)N(C)C)c1C ? inactive

Called result for COc1ccc(-c2ccccc2)cc1NNC(=O)OC(C)C inactive

Returns: the outcome recorded for N#Cc1c[nH]cc1-c1cccc2c1OC(F)(F)O2 in this assay. inactive

Record lookup: outcome of this test for CC(C)=CC1C(C(=O)OCc2coc(Cc3ccccc3)c2)C1(C)C (stereo unspecified) ? inactive

Write down the call the test reported for this compound. Item: CCOC(=O)C(C)OC(=O)c1cc(Oc2ccc(C(F)(F)F)cc2Cl)ccc1[N+](=O)[O-] (stereo unspecified) inactive

Which outcome was assigned to COCc1cnc(C2=NC(C)(C(C)C)C(=O)N2)c(C(=O)O)c1 (stereo unspecified) in this test? inactive

Would you mind telling me which call this test gave COC(=O)NS(=O)(=O)c1ccc(N)cc1 ? inactive

###

- METHOD: APR_HepG2_CellCycleArrest_24hr: Apredica 24-hour HepG2 Assay for Cell Cycle Arrest (AID 2282905);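 note: cell cycle arrest scored as ratio of 2N to 4N nuclear DNA content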
- ASSAY CONDITIONS: imaging, actives raise or lower the signal
Activity calls are given as the source filed them. How the source made its calls: active means hit-call score of the fitted dose curve at least 0.9, where 1 is the maximum; inactive means score below 0.9.
Form entry, call: pick from TRUE = active, FALSE = inactive

Please review the entries below; each comes with its answer.
[
  {
    "COMPOUND": "Nc1c(Cl)c(F)nc(OCC(=O)O)c1Cl",
    "CLASS NAME": "FALSE"
  },
  {
    "COMPOUND": "CCCCOCN(C(=O)CCl)c1c(CC)cccc1CC",
    "CLASS NAME": "FALSE"
  }
]

What did this assay record as the result for COC(=O)NC(=S)Nc1ccccc1NC(=S)NC(=O)OC ? FALSE

Give the logged outcome of this assay for the following compound: COc1cc(OC)nc(NC(=O)NS(=O)(=O)c2ncccc2OCC(F)(F)F)n1 FALSE

Please state the recorded outcome for this compound: CS(=O)(=O)c1cc(C(F)(F)F)ccc1C(=O)c1cnoc1C1CC1 FALSE

For CC1(C)CCC(=Cc2ccc(Cl)cc2)C1(O)Cn1cncn1 (stereo not given) , what call appears in the results of this test? TRUE

Can you look up the reported call for Clc1nc(Cl)nc(Nc2ccccc2Cl)n1 for me? FALSE

Outcome? CS(=O)(=O)c1ccc(C(=O)C2C(=O)CCCC2=O)c([N+](=O)[O-])c1 FALSE

What was the test verdict on CC(C)Nc1nc(Cl)nc(NC(C)C)n1 ? FALSE

Which result was noted for this compound in the test: COP(=S)(OC)SCn1nnc2ccccc2c1=O FALSE
